Test system: T-47D breast
Experiment: NCI-60 one-dose screen, 48 h
Details: 10 µM unless noted
About 83,000 compounds went through this panel and 20% of them were active in at least one assay; those are over-represented in the sample as a whole. Calls of active or inactive are those of the source. How the source made its calls: active means growth percent below 10; inactive means the rest.
Labels: active, inactive

INSERT INTO measurements (compound, assigned_label) VALUES
  ('COc1cc2c3c(n(CCCN4CCCC4)c(=O)c2cc1OC)-c1cc2c(cc1C3=O)OCO2', 'inactive'),
  ('O=S(=O)(Nc1ccc(I)c(Cl)c1)c1ccc(-c2cnc(C3CC3)o2)cc1', 'inactive'),
  ('CN1CCN(c2ccc(C(=O)/C=C/c3ccc(Cl)c(C(F)(F)F)c3)cc2)CC1', 'inactive'),
  ('CN1CCN(Cc2ccc(NC(=O)c3cncc(C#Cc4cnc5ccc(O[C@H]6CCOC6)nn45)c3)cc2C(F)(F)F)CC1', 'inactive'),
  ('COc1ccc(S(=O)(=O)NCCCNc2nccc(-n3cnc4ccccc43)n2)cc1', 'inactive'),
  ('COc1ccc(NC(=O)[C@H](C)N)cc1C(=O)Nc1cccc(-c2cc(=O)c3c(OC)c(OC)c(OC)cc3o2)c1', 'inactive'),
  ('CNC(=O)c1cc(Oc2ccc3nc(NC(=O)c4ccc(CN5CCCN(C)CC5)c(C(F)(F)F)c4)sc3c2)ccn1', 'active'),
  ('C=C(C)C(=O)O[C@H]1C[C@@]2(C)OC(=CC2=O)/C(CO)=C\[C@H]2OC(=O)C(=C)[C@H]12', 'active'),
  ('COc1ccc2c(c1)oc1c3[nH]c4ccccc4c3c3c(c21)C(=O)N(O)C3=O', 'inactive'),
  ('O=C1c2c(c3c4cc(Br)ccc4[nH]c3c3ccc4ccccc4c23)C(=O)N1CCN1CCNCC1', 'inactive'),
  ('CN(C)c1ccc(/C=N/Nc2nc(N/N=C/c3ccc(N(C)C)cc3)nc(N3CCOCC3)n2)cc1', 'inactive'),
  ('CC(=O)Nc1nc2c(s1)C1=CC[C@H]3[C@@H]4CC[C@H](C(C)=O)[C@@]4(C)CC[C@@H]3[C@@]1(C)CC2', 'inactive'),
  ('COc1ccc(C2CC(c3ccc(Nc4nc(NCCO)nc(Nc5ccc(Cl)cc5)n4)cc3)=Nc3c(N)nc(N)nc3N2)cc1 (stereo not drawn)', 'inactive'),
  ('COc1ccc(-c2ccc3c4c(cccc24)C(=O)N(N2C(=O)c4cccc5cccc(c45)C2=O)C3=O)cc1', 'inactive'),
  ('Oc1ccc(CSc2nnc(-c3ccc(Br)cc3)n2-c2ccccc2)c2cccnc12', 'inactive'),
  ('COc1ccc(NS(=O)(=O)c2ccc(-c3cnc(C4CC4)o3)cc2)cc1Cl', 'inactive'),
  ('Cc1nn(-c2ccc(Br)cc2)c2nc(CCl)[nH]c(=O)c12', 'inactive'),
  ('COc1ccc2c(C3=C(c4cn(C)c5ccccc45)C(=O)NC3=O)coc2c1', 'inactive');
